# System Name: lysozyme (Gallus gallus, UniProt P00698)
# Sequence (P00698 19-147): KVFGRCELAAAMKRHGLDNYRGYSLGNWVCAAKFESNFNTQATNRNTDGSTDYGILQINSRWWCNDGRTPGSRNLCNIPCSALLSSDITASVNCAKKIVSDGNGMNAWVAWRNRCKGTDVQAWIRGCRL
# Experimental Protocol: Relative inhibition of lysozyme (I50), UV spectrophotometric method with Micrococcus lysodeikticus as substrate
# Condition Notes: copolymers prepared in absence of lysozyme, and NAG; read-out: Relative Inhibition Iso (I50)
Result Type: pIC50
Just so you know, pIC50 here is -log10 of the concentration in molar units; reply with that number alone.

# pIC50 measured on lysozyme (Gallus gallus, UniProt P00698) for item CC(=O)N[C@H]1C(O)O[C@H](CO)[C@@H](O)[C@@H]1O (stereo partly shown) = 4.13
